- TARGET UNDER TEST: T1, wild type SOD1 from human erythrocytes (physiological dimers) (human, UniProt P00441 2-154)
- T1 construct: Purified from human erythrocytes (Sigma-Aldrich); homodimer; control incubated in Tris acetate buffer without oxidants; also called Native SOD1; native human SOD1 dimers
- T1 sequence (P00441 2-154 limits assumed): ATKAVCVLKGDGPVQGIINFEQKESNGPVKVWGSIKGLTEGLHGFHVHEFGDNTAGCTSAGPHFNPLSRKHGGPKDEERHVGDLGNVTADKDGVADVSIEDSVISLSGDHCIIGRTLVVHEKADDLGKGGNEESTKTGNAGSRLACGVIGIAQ
- METHOD: direct ELISA, native human SOD1 dimers coated at 20 µg/ml
pEC50: −log10 of the molar value.
What pEC50 was measured for each of the following?

Answer with the recorded pEC50 of NI-204.10A8 (antibody, human IgG1, V domains shown) VH: EVQLVESGAEVKEPGSSVRVSCKTSGGSFNRHVITWVRQAPGQGLEWMGEIIPFFGTPKYAPKFQGRVTIIADASTSTFFLDVKSLTSEDTALYFCWIVVVSVVQRREDFWGQGILVTVSS VL: EIVLTQSPSSLSASVGDTVTITCRSSQNISNYLSWFQHKPGKAPRILVYAASTLQTGVPSRFSGRGSGTIFTLSITSLQSEDYATYYCQQNDKIPRTFGQGTKVEIK only. < 7.00

Answer with the recorded pEC50 of NI-204.6H1 (antibody, human IgG1, V domains shown) VH: QVQLQQWGAGRLRPSETLSLTCAVYGGSFNGYARTWIRQPPGKGLEWIGEIDHRENTNYNPSLKSRVTMSVDTSKNQFSLRLNSVTAADTAVYFCARGQKNAKDQHEGFRYWGRGTLVTVSS VL: SYELTQPPSVSVSPGQTARITCSGDALPKQFAYWYQQKSGQAPKLVIFKDTERPSGIPERFSASSSGTKATLTISGVQAEDEADYYCQSADRTATSWVFGGGTKLTVL only. < 7.00

Answer with the recorded pEC50 of NI-204.25H3 (antibody, human IgG1, V domains shown) VH: QVQLQESGPGLVKPSETLSLTCTVSGGSISSSYWSWIRQPPGQGLEWIGYIYYSGNTYYNPSLKSRVTISIDTSKTQFSLNLTSVSAADTAVYYCARDGIPGAIGMDVWGQGTTVTVSS VL: QSVLTQPPSVSAAPGQKVNISCSGSSSNIGNNYVSWYQRLPGTAPKLLIYDNNKRPSGIPDRFSGSKSGTSATLGITGLQTGDGADYYCATWDKSLIAVVFGGGTKLTVL only. < 7.00
